target: UniProt P01116; assay: Binding to KRAS by surface plasmon resonance (SPR), Single Cycle Kinetics; conditions: SPR Single Cycle Kinetics, GDP-bound KRAS wild-type protein, 1:1 binding model; read-out: KRAS KD
Sequence (P01116 whole entry): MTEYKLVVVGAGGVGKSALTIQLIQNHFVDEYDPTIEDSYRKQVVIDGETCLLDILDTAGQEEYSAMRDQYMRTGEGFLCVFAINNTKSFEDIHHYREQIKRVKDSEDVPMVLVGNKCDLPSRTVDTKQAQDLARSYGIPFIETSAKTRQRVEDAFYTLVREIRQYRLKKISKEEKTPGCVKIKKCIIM
Where a SMILES comes first, the peptide text is derived from it. Bridges are numbered along the chain shown (N, C = ends). [ ]: non-standard residue; d: D form. The star is where a group is joined. hPhe(3-Cl-4-CF3) = N[C@@H](CCc1ccc(C(F)(F)F)c(Cl)c1)C(=O)O; NPrPhe(4-CF3) = CCCN[C@@H](Cc1ccc(C(F)(F)F)cc1)C(=O)O; NMeGly(cPent) = CN[C@H](C(=O)O)C1CCCC1; Pro(4,4-F2) = O=C(O)[C@@H]1CC(F)(F)CN1; NMeD = CN[C@@H](CC(=O)O)C(=O)O; NMeL = CN[C@@H](CC(C)C)C(=O)O; NMeNva = CCC[C@H](NC)C(=O)O; Morpholide = C1CN(*)CCO1; NMeA = CN[C@@H](C)C(=O)O; Ac5c = NC1(C(=O)O)CCCC1; Aze = O=C(O)[C@@H]1CCN1; Ac4c = NC1(C(=O)O)CCC1; Sar = CNCC(=O)O
Known pKd of a selection of compounds
Quick note: pKd means taking -log10 of the concentration in moles per liter.

Use the examples below as a reference point.
CCCN1C(=O)[C@@H]2CCN2C(=O)[C@H](C)N(C)C(=O)[C@H]([C@@H](C)CC)NC(=O)[C@H](CC(C)C)N(C)C(=O)C[C@@H](C(=O)N(C)C)NC(=O)[C@H](C2CCCC2)N(C)C(=O)C2(CCCC2)NC(=O)[C@@H]2CCCN2C(=O)[C@H](CCc2ccc(C(F)(F)F)c(Cl)c2)NC(=O)CN(C)C(=O)[C@@H]1Cc1ccc(C(F)(F)F)cc1 [PP0379] ([NMeL]I[NMeA][Aze][NPrPhe(4-CF3)][Sar][hPhe(3-Cl-4-CF3)]P[Ac5c][NMeGly(cPent)]D-NMe2; lactam N-11): 9.42
CCO[C@@H]1C[C@H]2C(=O)NC3(CC(C)(C)C3)C(=O)N(C)[C@@H](C3CCCC3)C(=O)N(C)[C@H](C(=O)N3CCCCC3)CC(=O)N(C)[C@H]3CC/C=C/c4ccc(cc4)C[C@@H](C(=O)N(C)CC(=O)N[C@@H](CCc4ccc(Cl)c(Cl)c4)C(=O)N2C1)N1CC/C=C\C[C@@H](C1=O)N(C)C(=O)CN(C)C(=O)[C@H]([C@@H](C)CC)NC3=O: 9.29
CCO[C@@H]1C[C@H]2C(=O)NC3(CCC3)C(=O)N(C)[C@@H](C3CCCC3)C(=O)N(C)[C@H](C(=O)N3CCCCC3)CC(=O)N(C)[C@H]3CCC/C=C/c4ccc(cc4)C[C@@H](C(=O)N(C)CC(=O)N[C@@H](CCc4cc(F)c(C(F)(F)F)c(F)c4)C(=O)N2C1)N1CC/C=C\C[C@@H](C1=O)N(C)C(=O)CN(C1CC1)C(=O)[C@H]([C@@H](C)CC)NC3=O: 9.43
CCC[C@H]1C(=O)N[C@@H]([C@@H](C)CC)C(=O)N(C2CC2)CC(=O)N(C)[C@H]2C/C=C\CCN(C2=O)[C@@H](Cc2ccc(C)cc2)C(=O)N(C)CC(=O)N[C@@H](CCc2ccc(Cl)c(Cl)c2)C(=O)N2C[C@H](OC3CCC3)C[C@H]2C(=O)NC2(CC(C)(C)C2)C(=O)N(C)[C@@H](C2CCCC2)C(=O)N(C)[C@H](C(=O)N(C)C)CC(=O)N1C: 9.10
CCCN1C(=O)[C@@H]2CCN2C(=O)[C@H](C)N(C)C(=O)[C@H]([C@@H](C)CC)NC(=O)[C@H](CC(C)C)N(C)C(=O)C[C@@H](C(=O)N(C)C)N(C)C(=O)[C@H](C2CCCC2)N(C)C(=O)C2(CCCC2)NC(=O)[C@@H]2CCCN2C(=O)[C@H](CCc2ccc(C(F)(F)F)c(Cl)c2)NC(=O)CN(C)C(=O)[C@@H]1Cc1ccc(C(F)(F)F)cc1 [PP0178] ([NMeL]I[NMeA][Aze][NPrPhe(4-CF3)][Sar][hPhe(3-Cl-4-CF3)]P[Ac5c][NMeGly(cPent)][NMeD]-NMe2; lactam N-11): 10.14

Can you share its pKd? I mean this compound: CC[C@H](C)[C@@H]1NC(=O)[C@H](CC(C)C)N(C)C(=O)C[C@@H](C(=O)N(C)C)N(C)C(=O)[C@H](C2CCCC2)N(C)C(=O)C2(CCC2)NC(=O)[C@@H]2CCCN2C(=O)[C@H](CCc2cc(F)c(C(F)(F)F)c(F)c2)NC(=O)CN(C)C(=O)[C@H](Cc2ccc(C(F)(F)F)cc2)N2CCCC[C@@H](C2=O)N(C)C(=O)CN(C)C1=O
10.59

Look at this compound and give its reported pKd. CCC[C@H]1C(=O)N[C@@H]([C@@H](C)CC)C(=O)N(C)CC(=O)N(C)[C@H]2C/C=C\CCN(C2=O)[C@@H](Cc2ccc(C)cc2)C(=O)N(C)CC(=O)N[C@@H](CCc2ccc(Cl)c(C(F)(F)F)c2)C(=O)N2C[C@H](OCC)C[C@H]2C(=O)NC2(CC(C)(C)C2)C(=O)N(C)[C@@H](C(CC)CC)C(=O)N(C)[C@H](C(=O)N(C)C)CC(=O)N1C
9.44

Which pKd reading was recorded for the compound CCC(CC)[C@H]1C(=O)N(C)[C@H](C(=O)N(C)C)CC(=O)N(C)[C@@H](COC)C(=O)N[C@@H]([C@@H](C)CC)C(=O)N(C2CC2)CC(=O)N(C)[C@H]2C/C=C\CCN(C2=O)[C@@H](CC2CCC(F)(F)CC2)C(=O)N(C)CC(=O)N[C@@H](CCc2cc(F)c(C(F)(F)F)c(F)c2)C(=O)N2C[C@H](OC3CCCC3)C[C@H]2C(=O)NC2(CC(C)(C)C2)C(=O)N1C ?
8.59

Entry under review: CCCN1C(=O)[C@@H]2CCN2C(=O)[C@H](C)N(C)C(=O)[C@H]([C@@H](C)CC)NC(=O)[C@H](CC(C)C)N(C)C(=O)C[C@@H](C(=O)N2CCOCC2)NC(=O)[C@H](C2CCCC2)N(C)C(=O)C2(CCC2)NC(=O)[C@@H]2CC(F)(F)CN2C(=O)[C@H](CCc2ccc(C(F)(F)F)c(Cl)c2)NC(=O)CN(C)C(=O)[C@@H]1Cc1ccc(C(F)(F)F)cc1 [PP0346] ([NMeL]I[NMeA][Aze][NPrPhe(4-CF3)][Sar][hPhe(3-Cl-4-CF3)][Pro(4,4-F2)][Ac4c][NMeGly(cPent)]D-Morpholide; lactam N-11) . Reported pKd?
8.92

Quick one: pKd of CCC[C@H]1C(=O)N[C@@H]([C@@H](C)CC)C(=O)N(C)[C@@H](C)C(=O)N2CC[C@H]2C(=O)N(CCC)[C@@H](Cc2ccc(C(F)(F)F)cc2)C(=O)N(C)CC(=O)N[C@@H](CCc2ccc(C(F)(F)F)c(Cl)c2)C(=O)N2CC(F)(F)C[C@H]2C(=O)NC2(CCCC2)C(=O)N(C)[C@@H](C2CCCC2)C(=O)N(C)[C@H](C(=O)N2CCOCC2)CC(=O)N1C [PP0205] ([NMeNva]I[NMeA][Aze][NPrPhe(4-CF3)][Sar][hPhe(3-Cl-4-CF3)][Pro(4,4-F2)][Ac5c][NMeGly(cPent)][NMeD]-Morpholide; lactam N-11) ?
9.96
